target: Serine/threonine-protein kinase SIK1 (Homo sapiens); conditions: at 1 µM;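 note: mean inhibition value from the GSK PKIS profiling set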
observable: inhibition (%)
Numeric only. Scale: %

# input # return recorded inhibition for entry CCn1c(-c2nonc2N)nc2c(C#CC(C)(C)O)ncc(OCC3CCNCC3)c21
# output 18

# input State its inhibition: Cc1cc(-c2ccco2)cc(C)c1/C=C/c1cncc(-c2nn[nH]n2)c1
# output 6.77

# input Return inhibition (reported value) for this compound: NC(=O)c1sc(-n2cnc3cc(C(F)(F)F)ccc32)cc1OCc1ccccc1Br
# output 1.7

# input Give inhibition for CCn1c(-c2nonc2N)nc2c(C#CC(C)(C)O)ncc(OC[C@@H]3CCCN3)c21
# output 4.19

# input Item COc1cc2c(cc1Nc1nc(Nc3ccsc3C(N)=O)c3cc[nH]c3n1)N(C(=O)CN(C)C)CCC2 : provide inhibition
# output -0.04

# input Given the compound COc1cc(C=NNc2ncnc3c2cnn3Cc2ccccc2)ccc1O , write its reported inhibition.
# output -3.99

# input Identify measured inhibition associated with COc1cccc(COc2cc(-n3cnc4ccccc43)sc2C(N)=O)c1
# output 3.4

Entry source: ChEMBL document CHEMBL1961873
